Provenance of the data: patent US20160297889A1

Molecular target: T1, CAPRIN-1 protein expressed on the membrane surface of human cancer cells (human, UniProt Q14444 2-709)
T1 sequence (looked up): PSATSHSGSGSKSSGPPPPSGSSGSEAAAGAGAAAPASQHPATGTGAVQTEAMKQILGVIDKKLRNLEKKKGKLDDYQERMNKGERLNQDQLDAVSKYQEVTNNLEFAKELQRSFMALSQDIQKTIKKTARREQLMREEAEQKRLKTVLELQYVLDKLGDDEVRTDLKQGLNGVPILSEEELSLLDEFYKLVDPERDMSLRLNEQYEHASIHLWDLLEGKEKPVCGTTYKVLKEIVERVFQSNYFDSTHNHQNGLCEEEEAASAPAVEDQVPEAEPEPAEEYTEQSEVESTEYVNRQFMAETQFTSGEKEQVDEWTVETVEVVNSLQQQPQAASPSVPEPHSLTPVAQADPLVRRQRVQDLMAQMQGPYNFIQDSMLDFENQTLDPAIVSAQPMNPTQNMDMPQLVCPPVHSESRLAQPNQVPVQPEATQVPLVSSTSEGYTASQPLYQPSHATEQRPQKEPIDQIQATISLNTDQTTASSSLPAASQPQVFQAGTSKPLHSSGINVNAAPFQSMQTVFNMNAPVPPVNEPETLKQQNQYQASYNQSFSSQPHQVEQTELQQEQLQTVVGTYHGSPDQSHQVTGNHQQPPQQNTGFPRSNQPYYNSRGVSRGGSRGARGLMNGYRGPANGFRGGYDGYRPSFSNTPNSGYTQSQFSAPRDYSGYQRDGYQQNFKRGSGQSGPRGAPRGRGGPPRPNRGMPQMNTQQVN
Assay: cell-based or functional assay
test.readout: ADCC cytotoxic activity (51Cr release) on RPM11666

# binder, recorded.measurement
rows = [
    ("humanized antibody #10 (antibody, V domains shown) VH: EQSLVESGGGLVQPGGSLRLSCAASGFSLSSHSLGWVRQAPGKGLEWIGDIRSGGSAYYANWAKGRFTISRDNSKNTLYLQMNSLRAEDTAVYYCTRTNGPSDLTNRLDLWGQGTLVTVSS VL: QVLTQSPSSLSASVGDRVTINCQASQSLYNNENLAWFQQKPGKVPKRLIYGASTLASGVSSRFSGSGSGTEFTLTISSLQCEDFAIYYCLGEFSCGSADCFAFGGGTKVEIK", "≥ 40%"),
]
